Species on record: Rattus norvegicus
measurement_notes: Open TG-GATES - Regimen: Daily Repeat
Assay type: toxicity, organism-based, Sprague-Dawley
Parameters: regimen Daily Repeat, gender Male, age 6 weeks
assay_conditions: in vivo, po, 100 mg/kg, […], tissue Plasma, route gavage, dose level Low, time 7 day
Lab note: anything with TBIL at or over 0.04 mg/dL counts as MET; the rest go in NOT MET.

- compound: "COC(=O)C1=C(C)NC(C)=C(C(=O)OC)C1c1ccccc1[N+](=O)[O-]"
  label_value: "NOT MET"
- compound: "CCOc1ccc(NC(C)=O)cc1"
  label_value: "MET"
- compound: "CNC(=C[N+](=O)[O-])NCCSCc1ccc(CN(C)C)o1"
  label_value: "MET"
- compound: "O=C(OC[C@H]1O[C@@H](OC(=O)c2cc(O)c(O)c(OC(=O)c3cc(O)c(O)c(O)c3)c2)[C@H](OC(=O)c2cc(O)c(O)c(OC(=O)c3cc(O)c(O)c(O)c3)c2)[C@@H](OC(=O)c2cc(O)c(O)c(OC(=O)c3cc(O)c(O)c(O)c3)c2)[C@@H]1OC(=O)c1cc(O)c(O)c(OC(=O)c2cc(O)c(O)c(O)c2)c1)c1cc(O)c(O)c(OC(=O)c2cc(O)c(O)c(O)c2)c1"
  label_value: "MET"
- compound: "CN/C(=N/CCSCc1nc[nH]c1C)NC#N"
  label_value: "MET"
- compound: "Cc1nnc2n1-c1ccc(Cl)cc1C(c1ccccc1Cl)=NC2"
  label_value: "NOT MET"
